B1: Cytosolic beta-glucosidase, O61594 (parent)
chain: MKLLVVLSLVAVACNASIVRQQRRFPDDFLFGTATASYQIEGAWDEDGKGENIWDYMVHNTPEVIRDLSNGDIAADSYHNYKRDVEMMRELGLDAYRFSLSWARILPTGMANEVNPAGIAFYNNYIDEMLKYNITPLITLYHWDLPQKLQELGGFANPLISDWFEDYARVVFENFGDRVKMFITFNEPREICFEGYGSATKAPILNATAMGAYLCAKNLVTAHAKAYYLYDREFRPVQGGQCGITISVNWFGPATPTPEDEMAAELRRQGEWGIYAHPIFSAEGGFPKELSDKIAEKSAQQGYPWSRLPEFTEEEKAFVRGTSDLIGVNHYTAFLVSATERKGPYPVPSLLDDVDTGSWADDSWLKSASAWLTLAPNSIHTALTHLNNLYNKPVFYITENGWSTDESRENSLIDDDRIQYYRASMESLLNCLDDGINLKGYMAWSLMDNFEWMEGYIERFGLYEVDFSDPARTRTPRKAAFVYKHIIKHRVVDYEYEPETMVMTIDEGH

Variants of: B1
Details: Spodoptera frugiperda; pH 6; Thermal; CD; Potassium phosphate 10mM; transition: 2; structure 5CG0; whole UniProt chain shown
Below, each entry is listed alongside its reported ddG of mutation (higher = less stable).

residue_change: L389A
quantity_unit: kcal/mol
ddG of mutation (higher = less stable): -0.67
--
residue_change: F251A
quantity_unit: kcal/mol
ddG of mutation (higher = less stable): 0.67
--
residue_change: K366A
quantity_unit: kcal/mol
ddG of mutation (higher = less stable): 1.25
